# measurement target: Sodium Channel, Site 2
# test name: Inhibition of binding of [3H]BTX-B to Wistar rat brain
# condition info: extrapolated; read-out: Nach ([3H]BTX-B) (extrapolated IC50 μM)
observation type: IC50 (µM)
Give just the number in µM; leave the unit off.

{"columns": ["sample smiles", "observation type", "reading"],
 "data": [
  ["N=c1nc(N)c(-c2cc(Cl)cc(Cl)c2Cl)nn1CC(Cl)(Cl)Cl", "IC50", 27]
]}

# ---- query molecule ----
What measured IC50 goes with "N=c1nc(N)c(-c2cccc(Cl)c2Cl)nn1CC(Cl)(Cl)Cl" ?
20
